FYI, the data here is from the supplement of paper PMC5908809.

system: KAI3 (IL-2 2.5 ng/mL); test: percent inhibition of viability; higher = more inhibition; conditions: 72 h; 250 nM;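 note: normalised to DMSO-only wells as negative and benzethonium chloride as positive control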
Readout: percent inhibition of viability (%)

>>> readout_number("CC(C)Cn1cnc2c(N)nc3ccccc3c21 [Imiquimod] (max concentration tested 2500 nM)")
5.37
>>> readout_number("CC(C)(C)c1nc(-c2cccc(NS(=O)(=O)c3c(F)cccc3F)c2F)c(-c2ccnc(N)n2)s1 [Dabrafenib] (max concentration tested 2500 nM)")
-4.3
>>> readout_number("COC[C@H](NC(=O)c1cnc(C)s1)C(=O)N[C@@H](COC)C(=O)N[C@@H](Cc1ccccc1)C(=O)[C@@]1(C)CO1 [Oprozomib] (max concentration tested 2500 nM)")
105
